# assay-summary: small-molecule binders of probe aInhba, primary screen, biochemical, small-molecule microarray, 635/667 nm fluorescence (AID 1148);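 also: score merges 667nm spot fluorescence with signal-to-noise for antibody binding to printed compounds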
# settings: higher = more signal
property-name: composite z-score

>>> observed_result("CCOC(=O)NN=C1C[C@@H](O)[C@@H](O)[C@@H]2[C@@H]3C(=O)N(C4CCCCC4)C(=O)[C@@H]3CC[C@@H]12")
-0.0987
>>> observed_result("CCc1cc2c(nc1CC)CCN(CCC(C)=NOC[C@@H](O)COCc1ccco1)C2")
0.149
>>> observed_result("CO[C@@H]1COC(=O)CC=C[C@@H](C)COC(=O)[C@H](COCc2ccccc2)NC(=O)CC=C[C@H]1C")
-0.128
>>> observed_result("CC[C@@H](c1ccccc1)n1c(=O)n2n(c1=O)[C@H]1[C@H](O)[C@@H]3O[C@@H]3C(=NOCC=C(C)CCC=C(C)C)[C@H]1CC2")
-0.0963
>>> observed_result("COCC1=C2[C@@H](CCc3ccccc3)OB(O)C[C@@H]2n2c(=O)n(-c3ccccc3)c(=O)n2C1")
-0.082
>>> observed_result("COCCOC(=O)N1C(=O)[C@@]2(c3cc(C#Cc4ccc(OC)cc4)ccc31)[C@H](c1ccc(O)cc1)N1[C@H](c3ccccc3)[C@H](c3ccccc3)OC(=O)[C@H]1[C@@H]2C(N)=O")
-0.0947
>>> observed_result("CCOC(=O)[C@H](CC(C)C)NC(=O)CCC1CC(OC(=O)NCc2cccc3ccccc23)CC2(CCCC(COC(=O)NCCc3ccccc3OC)O2)O1 (some centres undefined)")
-0.217
>>> observed_result("O=C1C[C@@H](O)[C@@H](O)[C@@H]2[C@@H]3C(=O)N(c4ccc(F)cc4F)C(=O)[C@@H]3CC[C@@H]12")
-0.0887
>>> observed_result("CCOC(=O)CCN1C(=O)[C@H]2[C@H]3[C@H](O)[C@H](O)CC(=NOCc4ccccc4)[C@@H]3CC[C@H]2C1=O")
-0.186
>>> observed_result("O=C1[C@H]2[C@H]3[C@H](O)[C@H](O)CC(=NO[C@@H]4O[C@H](CO)[C@@H](O)[C@H](O)[C@H]4O)[C@@H]3CC[C@H]2C(=O)N1c1ccc(F)cc1F")
-0.0719
>>> observed_result("COCCOC(=O)N1C(=O)[C@@]2(c3cc(C#CC4(O)CCCCCC4)ccc31)[C@H](c1ccc(OCCO)cc1)N1[C@H](c3ccccc3)[C@H](c3ccccc3)OC(=O)[C@H]1[C@@H]2C(=O)NC[C@H](O)c1ccccc1")
0.0658
>>> observed_result("CN1C(=O)C2C=CC(C(O)c3ccc(I)cc3)N(NC(=O)OC(C)(C)C)C2C1=O (centres undefined)")
0.274
>>> observed_result("COC(=O)[C@H](C)NC(=O)CCC1CC(OC(=O)NCc2ccc3c(c2)OCO3)CC2(CCCC(COC(=O)NCCOc3ccccc3)O2)O1 (some centres undefined)")
-0.128
>>> observed_result("C[C@@H](c1ccccc1)N1C(=O)[C@H]2[C@H]3[C@H](O)[C@H](O)CC(=NOC[C@@H](O)COCc4ccco4)[C@@H]3CC[C@H]2C1=O")
-0.176
>>> observed_result("CCOc1ccc(N2C(=O)/C(=C/C=C/c3ccccc3OC)S(=O)(=O)C2c2cccc([N+](=O)[O-])c2)cc1 (centres undefined)")
-0.0596
>>> observed_result("COC(=O)c1c(CC[C@@H](CO)NC(=O)N[C@H](Cc2ccccc2)Cn2cc(-c3ccccc3N)nn2)oc(C(C)=O)c1C(=O)OC")
0.449
>>> observed_result("CC(C)[Si]1(C(C)C)O[C@@H](c2ccccc2)c2cc(C3CC3)nc(-c3ccccc3)c21")
-0.207
>>> observed_result("C[C@@H]1C=CCC(=O)OC[C@H](C)C(=O)OC[C@H]2O[C@H]1C=C[C@H]2O")
-0.105
>>> observed_result("CCOC(=O)[C@H](Cc1ccccc1)NC(=O)CCC1CC(OC(=O)NCc2ccc3c(c2)OCO3)CC2(CCCC(COC(=O)NCc3ccccc3)O2)O1 (some centres undefined)")
-0.168
>>> observed_result("COc1ccc(O[C@H]2C=C[C@@H](c3ccccc3)O[C@@H]2COC(=O)CCC(C)=NOC[C@@H](C)[C@H](OCc2ccccc2)C(C)C)cc1")
-0.203
>>> observed_result("NCCCCCNC(=O)[C@@H]1C[C@@H]2C(=O)N3CCC[C@H]3C(=O)N2[C@@H]1c1cccc(OCCO)c1")
1.15
>>> observed_result("COCCCNC(=O)[C@@]1(Sc2ccc(C)cc2)CC(=O)N(Cc2ccccc2)[C@@H]1c1ccc(CO)cc1I")
0.106
>>> observed_result("COC(=O)C1(C)C=C2C(=C(c3ccccc3)C(=O)C2C)CN1 (centres undefined)")
0.12
>>> observed_result("C#CCCCON=C1C[C@@H](O)[C@@H](O)[C@@H]2[C@@H]3C(=O)N(CCC(=O)OCC)C(=O)[C@@H]3CC[C@@H]12")
0.027
>>> observed_result("CCOC(=O)CCN1C(=O)[C@H]2[C@H]3[C@H](O)C=CC(=O)[C@@H]3CC[C@H]2C1=O")
0.0104
>>> observed_result("CCCCc1nc2c(c3c1C[C@H](C)OC3)CN(CCC(C)C)CC2")
-0.0074
>>> observed_result("COC(=O)CC=C[C@@H](C)[C@@H](C=NO[C@H](C)c1cn([C@@H]2COC[C@H]2O)nn1)OC")
-0.159
>>> observed_result("O=C(CS)NCCCCCNC(=O)[C@@H]1C[C@@H]2C(=O)N[C@@H](Cc3ccccc3)C(=O)N2[C@@H]1c1ccc(O)cc1")
-0.128
>>> observed_result("CC(C)NC(=O)[C@@H]1c2ccccc2C(=O)N(CC23CC4CC(CC(C4)C2)C3)[C@H]1c1ccc(CO)cc1")
0.0569
